Tested on: A549-TP53BP1-CLTA
EXPERIMENTAL_DETAILS: phenotypically active (imaging signature differs from DMSO and reproducible) at any of 0.3-9 uM (binary (1 = active, 0 = inactive)); higher = active
ASSAY_CONDITIONS: treatment time: 24 h
METRIC: phenotypically active

[
  {
    "MOLECULE": "CC(C)[C@H]1CC[C@H](C(=O)N[C@H](Cc2ccccc2)C(=O)O)CC1 [nateglinide]",
    "phenotypically active": "0 (inactive)"
  },
  {
    "MOLECULE": "CN1CC[C@]23c4ccccc4N[C@H]1[C@]21CCN(C)[C@H]3Nc2ccccc21 [Calycanthine]",
    "phenotypically active": "0 (inactive)"
  }
]

Asked: Recorded phenotypically active of "Oc1ccc(Nc2nc(-c3ccc(Cl)cc3)cs2)cc1" , please.
Given back: 1 (active)

* * *

Test system: A549-TUBA1B-RELA
EXPERIMENTAL_DETAILS: lowest phenotypically active concentration; higher = less potent
ASSAY_CONDITIONS: treatment time: 24 h
Counter-ions that a name gives are not always drawn.
METRIC: lowest phenotypically active concentration (µM)
Give the value in µM but do not write µM after it.

Below, each entry is followed by its recorded lowest phenotypically active concentration result.
[
  {
    "COMPOUND": "CC(C)C(=O)SCCCCCCC(=O)Nc1nc(-c2ccccc2)cs1",
    "OUTPUT_UNIT": "µM",
    "EXPERIMENTAL_RESULT": 9
  },
  {
    "COMPOUND": "Cc1noc(C)c1Cn1cc(C#N)c2cc(Oc3ccc(NC(=O)[C@@H]4CCCN4)cc3)ccc21",
    "OUTPUT_UNIT": "µM",
    "EXPERIMENTAL_RESULT": 9
  },
  {
    "COMPOUND": "N=C(N)c1ccc(OCCCCCOc2ccc(C(=N)N)cc2)cc1",
    "OUTPUT_UNIT": "µM",
    "EXPERIMENTAL_RESULT": 1
  },
  {
    "COMPOUND": "CCCCCCCCCCCCC/C=C/[C@@H](O)[C@H](CO)N(C)C",
    "OUTPUT_UNIT": "µM",
    "EXPERIMENTAL_RESULT": 3
  },
  {
    "COMPOUND": "Oc1cccc(Nc2ccnc3cc(-c4cccc(CN5CCOCC5)c4)sc23)c1 [LCB 03-0110 dihydrochloride]",
    "OUTPUT_UNIT": "µM",
    "EXPERIMENTAL_RESULT": 1
  }
]

Asked: Recorded lowest phenotypically active concentration of "CCOc1nc(NC(=O)Cc2cc(OC)ccc2OC)cc(N)c1C#N" , please.
Given back: 9

Asked: Recorded lowest phenotypically active concentration of CC(C)COCC(CN(Cc1ccccc1)c1ccccc1)N1CCCC1 (stereo not drawn) , please.
Given back: 9

* * *

Tested on: A549-ACTB-RAB5A
EXPERIMENTAL_DETAILS: phenotypically active (imaging signature differs from DMSO and reproducible) at any of 0.3-9 uM (binary (1 = active, 0 = inactive)); higher = active
ASSAY_CONDITIONS: treatment time: 24 h
Result category, one only: active, inactive

The following molecules have reported results that may help.
[
  {
    "MOL": "CCCCOc1cc(C(=O)NCCN(CC)CC)c2ccccc2n1",
    "DISCRETE_LABEL": "active"
  },
  {
    "MOL": "OC[C@H]1NC[C@H](O)[C@@H](O)[C@@H]1O",
    "DISCRETE_LABEL": "inactive"
  },
  {
    "MOL": "CC(C)n1c(/C=C/[C@@H](O)C[C@@H](O)CC(=O)O)c(-c2ccc(F)cc2)c2ccccc21",
    "DISCRETE_LABEL": "active"
  },
  {
    "MOL": "O=C(Nc1cc(C(F)(F)F)cc(C(F)(F)F)c1)c1cnc(Cl)nc1C(F)(F)F",
    "DISCRETE_LABEL": "inactive"
  }
]

# next molecule below
Asked: How did this test come out for "O=C(Nc1cccnn1)N1CCN(c2nccc(-c3ccc(F)c(F)c3)n2)CC1" ?
Given back: inactive

* * *

Tested on: A549-ACTB-RAB5A
EXPERIMENTAL_DETAILS: lowest phenotypically active concentration; higher = less potent
ASSAY_CONDITIONS: treatment time: 24 h
Counter-ions that a name gives are not always drawn.
METRIC: lowest phenotypically active concentration (µM)
Give the value in µM but do not write µM after it.

Below, each entry is followed by its recorded lowest phenotypically active concentration result.
[
  {
    "COMPOUND": "O=C(Nc1nc2cc(C(F)(F)F)cc(NC3CC3)n2n1)c1cccnc1",
    "EXPERIMENTAL_RESULT": 3
  },
  {
    "COMPOUND": "O=C(O)C[C@H](O)C[C@H](O)/C=C/c1c(C2CC2)nc2ccccc2c1-c1ccc(F)cc1",
    "EXPERIMENTAL_RESULT": 1
  },
  {
    "COMPOUND": "COc1cc(O)cc(O)c1C(=O)/C=C/c1ccccc1",
    "EXPERIMENTAL_RESULT": 9
  },
  {
    "COMPOUND": "CN(C)C(=O)C(CCN1CCC(O)(c2ccc(Cl)cc2)CC1)(c1ccccc1)c1ccccc1 [loperamide]",
    "EXPERIMENTAL_RESULT": 3
  },
  {
    "COMPOUND": "Oc1ccc(-c2nc(-c3ccc(F)cc3)c(-c3ccncc3)[nH]2)cc1",
    "EXPERIMENTAL_RESULT": 3
  }
]

Asked: Which lowest phenotypically active concentration is reported with A549-ACTB-RAB5A for this entry: "COc1cc(/C=C/C(=O)N2CCC=CC2=O)cc(OC)c1OC" ?
Given back: 3

Asked: Which lowest phenotypically active concentration is reported with A549-ACTB-RAB5A for this entry: "Cc1c(C(=O)N2CCOc3ccc(-c4ccc(N)nc4)cc3C2)ccc(S(C)(=O)=O)c1F" ?
Given back: 1

Asked: Which lowest phenotypically active concentration is reported with A549-ACTB-RAB5A for this entry: OCc1cc(C(O)CNCCCCCCOCCCCc2ccccc2)ccc1O (stereo unspecified) ?
Given back: 9

Asked: Which lowest phenotypically active concentration is reported with A549-ACTB-RAB5A for this entry: "CC(C)c1ccc(-c2cc(=O)c3ccccc3o2)cc1" ?
Given back: 9

Asked: Which lowest phenotypically active concentration is reported with A549-ACTB-RAB5A for this entry: CC(CN1c2ccccc2Sc2ccccc21)N(C)C (stereo unspecified) ?
Given back: 9

Asked: Which lowest phenotypically active concentration is reported with A549-ACTB-RAB5A for this entry: "Cc1nc2sccn2c(=O)c1CCN1CCC(=C(c2ccc(F)cc2)c2ccc(F)cc2)CC1" ?
Given back: 9

Asked: Which lowest phenotypically active concentration is reported with A549-ACTB-RAB5A for this entry: COc1cc(OC)c2cc(-c3ccncc3)cnc2c1 [DMPQ dihydrochloride] ?
Given back: 9

Asked: Which lowest phenotypically active concentration is reported with A549-ACTB-RAB5A for this entry: CC(C)OC(=O)c1cc2c(OCC(O)CNC(C)(C)C)cccc2[nH]1 (stereo unspecified) ?
Given back: 3

Asked: Which lowest phenotypically active concentration is reported with A549-ACTB-RAB5A for this entry: "CC(C)c1nc(CN(C)C(=O)N[C@H](C(=O)N[C@@H](Cc2ccccc2)C[C@H](O)[C@H](Cc2ccccc2)NC(=O)OCc2cncs2)C(C)C)cs1" ?
Given back: 9

Asked: Which lowest phenotypically active concentration is reported with A549-ACTB-RAB5A for this entry: "O=C(OC12CC3CC(CC(C3)C1)C2)c1ccc(NCc2cc(O)ccc2O)cc1" ?
Given back: 1

Asked: Which lowest phenotypically active concentration is reported with A549-ACTB-RAB5A for this entry: "O=c1ncn2nc(Sc3ccc(F)cc3F)ccc2c1-c1c(Cl)cccc1Cl" ?
Given back: 9

Asked: Which lowest phenotypically active concentration is reported with A549-ACTB-RAB5A for this entry: "O=C1c2ccccc2-c2nc3nonc3nc21" ?
Given back: 3

Asked: Which lowest phenotypically active concentration is reported with A549-ACTB-RAB5A for this entry: "COCC(=O)O[C@]1(CCN(C)CCCc2nc3ccccc3[nH]2)CCc2cc(F)ccc2[C@@H]1C(C)C" ?
Given back: 3

Asked: Which lowest phenotypically active concentration is reported with A549-ACTB-RAB5A for this entry: "COCCCC/C(=N/OCCN)c1ccc(C(F)(F)F)cc1" ?
Given back: 9

Asked: Which lowest phenotypically active concentration is reported with A549-ACTB-RAB5A for this entry: "CCSc1ccc2c(c1)N(CCCN1CCN(C)CC1)c1ccccc1S2" ?
Given back: 3

* * *

Tested on: HepG2-GM130-SQSTM1
EXPERIMENTAL_DETAILS: phenotypically active (imaging signature differs from DMSO and reproducible) at any of 0.3-9 uM (binary (1 = active, 0 = inactive)); higher = active
ASSAY_CONDITIONS: treatment time: 24 h
Counter-ions that a name gives are not always drawn.
Result category, one only: label 1 (active), label 0 (inactive)

[
  {
    "COMPOUND": "Nc1ncnc2[nH]nc(Nc3ccc(F)cc3)c12",
    "DISCRETE_LABEL": "label 1"
  },
  {
    "COMPOUND": "Cc1nc(=O)c2c([nH]1)CCSC2",
    "DISCRETE_LABEL": "label 0"
  },
  {
    "COMPOUND": "CNC(=O)COC(=O)N1CCC(CCc2ccc(Cl)cc2)CC1",
    "DISCRETE_LABEL": "label 0"
  },
  {
    "COMPOUND": "Cc1ccc(Nc2nccc(N(C)c3ccc4c(C)n(C)nc4c3)n2)cc1S(N)(=O)=O [pazopanib]",
    "DISCRETE_LABEL": "label 1"
  },
  {
    "COMPOUND": "CCCCN1C[C@H](O)[C@@H](O)[C@H](O)[C@H]1CO [Miglustat hydrochloride]",
    "DISCRETE_LABEL": "label 0"
  },
  {
    "COMPOUND": "CC(CCc1ccc(O)cc1)NCCc1ccc(O)c(O)c1 (configuration not stated) [Dobutamine hydrochloride]",
    "DISCRETE_LABEL": "label 0"
  }
]

Asked: How did this test come out for CC(=O)CCCCn1c(=O)c2c(ncn2C)n(C)c1=O [Pentoxifylline] ?
Given back: label 0

Asked: How did this test come out for CCOC(=O)Nc1cc(-c2ccc(C)c(NS(C)(=O)=O)c2)nn2c(C)nnc12 [Bromosporine] ?
Given back: label 1

Asked: How did this test come out for S=c1[nH]cnc2nc[nH]c12 [mercaptopurine] ?
Given back: label 0

Asked: How did this test come out for CC1=C(/C=C/C(C)=C/C=C/C(C)=C/C(=O)O)C(C)(C)CCC1 [isotretinoin] ?
Given back: label 0

Asked: How did this test come out for "Cc1cccc(Nc2cc(Cl)nc(SCC(=O)O)n2)c1C" ?
Given back: label 0

Asked: How did this test come out for CN(C)CC(O)Cn1c2ccc(Br)cc2c2cc(Br)ccc21 (configuration not stated) [Wiskostatin] ?
Given back: label 1

Asked: How did this test come out for Nc1cc(-c2ccncc2)c[nH]c1=O [amrinone] ?
Given back: label 0

Entry source: the supplement of paper PMC7411054
